Entry source: patent US20260217697A1

Property: pIC50; scope: individual compounds
Biological target: hTRPV3 (Homo sapiens, UniProt Q8NET8)
Construct: The commercially available plasmid with the full-length cDNA of hTRPV3 (791 aa) (NM_001258205.2)
Assay: Whole-cell patch-clamp recording of hTRPV3 current in transfected HEK293T cells (2-APB induced)
Conditions: current induced by 300 μM 2-APB, compounds tested up to 10 μM, room temperature
pIC50: −log10 of the molar value.

Lookup: Recorded pIC50 of COc1ncnc(OC)c1C(=O)Nc1nc2c(s1)-c1ccc(C(F)(F)F)cc1OC21CCS(=O)(=O)CC1 , please.
Found: 5.00 to 6.00

More entries:
Lookup: Recorded pIC50 of COc1ncnc(OC)c1C(=O)Nc1nc2c(s1)C1(CCC(NC(=O)OC(C)(C)C)CC1)Oc1cc(C(F)(F)F)ccc1-2 (stereo not shown) , please.
Found: 6.00 to 7.00

Lookup: Recorded pIC50 of COc1ncnc(OC)c1C(=O)Nc1nc2c(s1)C1(CCN(C(=O)OC(C)(C)C)CC1)Oc1cc(C(F)(F)F)ccc1-2 , please.
Found: > 7.00

Lookup: Recorded pIC50 of COc1ncnc(OC)c1C(=O)Nc1nc2c(s1)C1(COC1)Oc1cc(C#N)ccc1-2 , please.
Found: ≤ 5.00

---

Biological target: hTRPV3 (Homo sapiens, UniProt Q8NET8)
Construct: The commercially available plasmid with the full-length cDNA of hTRPV3 (791 aa) (NM_001258205.2)
Sequence (Q8NET8 1-791 isoform Q8NET8-2): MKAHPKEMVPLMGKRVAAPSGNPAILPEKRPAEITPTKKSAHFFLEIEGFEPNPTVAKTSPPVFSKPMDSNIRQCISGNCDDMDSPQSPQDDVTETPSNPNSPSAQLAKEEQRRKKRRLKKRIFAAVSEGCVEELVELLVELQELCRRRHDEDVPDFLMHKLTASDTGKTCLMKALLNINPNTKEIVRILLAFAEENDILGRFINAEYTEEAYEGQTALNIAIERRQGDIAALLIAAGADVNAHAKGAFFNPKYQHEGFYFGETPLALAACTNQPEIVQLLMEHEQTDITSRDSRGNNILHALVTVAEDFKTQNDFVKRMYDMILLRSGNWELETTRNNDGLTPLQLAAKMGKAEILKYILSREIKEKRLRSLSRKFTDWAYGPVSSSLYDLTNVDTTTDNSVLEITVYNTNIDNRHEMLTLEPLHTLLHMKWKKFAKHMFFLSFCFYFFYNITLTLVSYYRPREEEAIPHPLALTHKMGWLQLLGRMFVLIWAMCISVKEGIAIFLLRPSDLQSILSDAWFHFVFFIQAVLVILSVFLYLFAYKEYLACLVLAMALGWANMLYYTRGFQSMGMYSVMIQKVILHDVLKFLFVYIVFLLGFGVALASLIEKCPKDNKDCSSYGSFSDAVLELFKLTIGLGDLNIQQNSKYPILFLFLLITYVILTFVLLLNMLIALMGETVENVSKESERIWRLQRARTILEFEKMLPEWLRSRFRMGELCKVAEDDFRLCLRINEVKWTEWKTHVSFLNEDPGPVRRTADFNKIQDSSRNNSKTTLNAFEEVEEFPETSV
Experiment: Whole-cell patch-clamp recording of hTRPV3 current in transfected HEK293T cells (2-APB induced)
Conditions: current induced by 300 μM 2-APB, compounds tested up to 10 μM, room temperature
PROPERTY_LABEL: IC50

// solved cases for IC50 follow
Lookup: Write down the reported IC50 of CCOC(=O)[C@H]1CC[C@]2(CC1)Oc1cc(Br)ccc1-c1nc(NC(=O)c3c(OC)ncnc3OC)sc12 , test system: hTRPV3 (Homo sapiens, UniProt Q8NET8).
Found: 100 to 1000 nM

Lookup: Write down the reported IC50 of COCOCC1(COCOC)Oc2cc(C(F)(F)F)ccc2-c2nc(NC(=O)c3c(OC)ncnc3OC)sc21 , test system: hTRPV3 (Homo sapiens, UniProt Q8NET8).
Found: 100 to 1000 nM

Lookup: Write down the reported IC50 of CCC1(CC)Oc2cc(C(F)(F)F)ccc2-c2nc(N(C)C(=O)c3c(OC)ncnc3OC)sc21 , test system: hTRPV3 (Homo sapiens, UniProt Q8NET8).
Found: ≥ 10000 nM

# evaluate next
Lookup: Write down the reported IC50 of COc1ncnc(OCCN(C)C)c1C(=O)Nc1nc2c(s1)C1(COC1)Oc1cc(C(C)C)ccc1-2 , test system: hTRPV3 (Homo sapiens, UniProt Q8NET8).
Found: 1000 to 10000 nM
